Biological target: S. pneumoniae Topoisomerase IV ATPase (ParE) (Streptococcus pneumoniae serotype 4)
Sequence (Q59961 whole entry): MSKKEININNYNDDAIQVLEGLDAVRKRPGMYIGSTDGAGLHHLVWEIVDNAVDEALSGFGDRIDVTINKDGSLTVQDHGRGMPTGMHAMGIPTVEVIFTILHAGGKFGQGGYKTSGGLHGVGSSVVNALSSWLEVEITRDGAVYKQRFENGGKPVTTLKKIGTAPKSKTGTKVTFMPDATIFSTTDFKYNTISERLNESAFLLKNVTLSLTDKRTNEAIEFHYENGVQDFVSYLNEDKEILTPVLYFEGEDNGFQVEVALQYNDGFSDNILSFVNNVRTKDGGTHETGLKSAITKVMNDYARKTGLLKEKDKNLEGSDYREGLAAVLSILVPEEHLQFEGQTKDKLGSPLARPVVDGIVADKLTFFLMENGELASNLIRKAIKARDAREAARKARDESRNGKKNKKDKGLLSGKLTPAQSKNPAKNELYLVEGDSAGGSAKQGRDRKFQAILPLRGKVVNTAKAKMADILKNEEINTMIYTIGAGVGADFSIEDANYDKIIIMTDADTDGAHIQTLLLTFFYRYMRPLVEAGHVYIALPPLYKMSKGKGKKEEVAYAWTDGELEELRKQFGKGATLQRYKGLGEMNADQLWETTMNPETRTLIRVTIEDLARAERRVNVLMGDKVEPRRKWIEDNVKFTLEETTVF
Assay: S. pneumoniae Topoisomerase IV ATPase inhibition
Assay type: biochemical
Settings: values marked * are an average of two or more data points, read-out: % Inh (13 μM) of S. pneumoniae Topoisomerase IV ATPase
result_type: inhibition at 13 µM
Please make sure the unit comes right after the number.

Some molecules with known inhibition at 13 µM results, for comparison:
[[record]]
molecule = "O=C(O)/C=C/c1cccc(-c2cnc(Nc3ccc(F)c(Cl)c3)nc2-n2cc(-c3ccncn3)cn2)c1 [Example 568]"
experimental_target = "S. pneumoniae Topoisomerase IV ATPase (ParE) (Streptococcus pneumoniae serotype 4)"
result = "100%"

[[record]]
molecule = "COc1ncc(-c2cnc(Nc3cc(C)ccc3F)nc2-n2nc(C(F)(F)F)cc2C)cc1C(=O)O [Example 757]"
experimental_target = "S. pneumoniae Topoisomerase IV ATPase (ParE) (Streptococcus pneumoniae serotype 4)"
result = "19%"

[[record]]
molecule = "O=C(O)/C=C/c1cccc(-c2cnc(Nc3ccc(F)c(Br)c3)nc2N2CCOCC2)c1 [Example 454]"
experimental_target = "S. pneumoniae Topoisomerase IV ATPase (ParE) (Streptococcus pneumoniae serotype 4)"
result = "92%"


Required: inhibition at 13 µM, one value per molecule below.
1. Cc1cc(C)cc(Nc2ncc(-c3cccc(/C=C/C(=O)O)c3)c(-n3nc(C(F)(F)F)cc3C)n2)c1 [Example 618]
2. COc1cc(Nc2ncc(-c3cncc(C(=O)CS(C)(=O)=O)c3)c(-n3nc(C(F)(F)F)cc3C)n2)cc(C(F)(F)F)c1 [Example 881]
3. CN(C)CCNc1nc(Nc2ccc(F)c(Cl)c2)ncc1-c1cncc(C(=O)O)c1 [Example 220]
4. COc1cc(C)cc(Nc2ncc(-c3cnc(OC)c(-c4n[nH]c(=O)o4)c3)c(-n3ccc(C(F)(F)F)n3)n2)c1 [Example 1169]

98%
97%
79%
100%

Required: inhibition at 13 µM, one value per molecule below.
1. O=C(O)c1cncc(-c2cnc(Nc3ccc(F)c(Cl)c3)nc2N2CCCCC2)c1 [Example 275]
2. O=C(O)c1cncc(-c2cnc(Nc3ccc(F)c(Cl)c3)nc2N2CCC(F)CC2)c1 [Example 248]
3. COc1c(C(=O)O)cccc1-c1cnc(Nc2ccc(F)c(Cl)c2)nc1-n1ccc(C(F)(F)F)n1 [Example 1139]
4. O=C(O)c1cc(-c2cnc(Nc3ccc(F)c(Cl)c3)nc2-n2ccc(C(F)(F)F)n2)cn(CCN2CCOCC2)c1=O [Example 1075]
5. Cc1cc(C(F)(F)F)nn1-c1nc(Nc2ccc(F)c(Cl)c2)ncc1-c1cc(C(=O)O)c(=O)n(CCO)c1 [Example 1084]
6. COc1cc(C#N)cc(Nc2ncc(-c3cnc(OC)c(C(=O)O)c3)c(-n3nc(C(F)(F)F)cc3C)n2)c1 [Example 737]

["134%", "66.1%", "96%", "97%", "100%", "97%"]

Required: inhibition at 13 µM, one value per molecule below.
1. CCOC(=O)c1cncc(-c2cnc(Nc3ccc(F)c(Cl)c3)nc2N2CCCC(CO)C2)c1 (stereo not drawn) [Example 118]
2. O=C(NCCO)c1cccc(-c2cnc(Nc3ccc(F)c(Cl)c3)nc2-n2ccc(C(F)(F)F)n2)c1 [Example 1146]

1: 80.6%; 2: 100%
